# SYSTEM_TESTED: T1, GFP-9S library array, motif 4 ND N98E;D124W (synthetic construct, N98E;D124W)
# T1 chain: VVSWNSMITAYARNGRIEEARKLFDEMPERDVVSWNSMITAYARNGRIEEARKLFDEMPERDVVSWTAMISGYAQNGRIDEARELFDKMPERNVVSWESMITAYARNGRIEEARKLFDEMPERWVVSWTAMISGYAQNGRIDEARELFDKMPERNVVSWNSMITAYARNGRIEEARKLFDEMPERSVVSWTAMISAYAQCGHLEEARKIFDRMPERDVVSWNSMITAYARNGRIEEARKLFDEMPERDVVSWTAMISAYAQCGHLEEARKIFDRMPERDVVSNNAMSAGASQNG
# TEST_DESCRIPTION: high-throughput RNA pulldown from lysate on Ni-NTA beads; HRP: 50 mM Tris pH 8, 150 mM NaCl, 1 mM beta-mercaptoethanol, 50 ug/ml BSA, 3 ug/ml yeast RNA, 0.5% heparin; ITC and FP: Tris pH 8, 200 mM KCl, 5% glycerol; MST: 50 mM Tris pH 8, 200 mM NaCl, 1 mM DTT, BSA, heparin, 0.05% Tween 20
# PROTOCOL_CONDITIONS: tags: N-terminal His-eGFP; label: 5' Cy5
READOUT_NAME: pKd
By convention, pKd is the negative base-10 log of a molar concentration.

                           binder  result_value
0  AUUACACGUGA (ssRNA) [Cy5-rpoA]          6.67

Could you now look at the following binder, please?
pKd reported for this binder AUUAGACGUGA (ssRNA) [Cy5-rpoA-G] : 6.70
